Target Of Assay: T1, Brr2^C-Sec63 (human, UniProt O75643 1840-2136)
T1 sequence (looked up): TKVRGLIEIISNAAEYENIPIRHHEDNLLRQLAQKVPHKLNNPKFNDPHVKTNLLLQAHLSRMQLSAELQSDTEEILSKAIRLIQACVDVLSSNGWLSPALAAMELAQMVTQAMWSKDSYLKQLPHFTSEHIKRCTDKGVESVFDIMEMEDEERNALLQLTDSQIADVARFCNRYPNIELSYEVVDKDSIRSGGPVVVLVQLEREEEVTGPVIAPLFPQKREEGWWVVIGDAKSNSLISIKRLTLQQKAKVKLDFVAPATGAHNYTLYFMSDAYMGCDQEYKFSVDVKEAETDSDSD
Test Protocol: ITC
Experimental Readout: pKd
To interpret pKd, take it as minus log10 of a concentration measured in moles per litre.

*Q* Field request: pKd | item: GVAPVFKKRRTENGKSRNLR [peptide 58]
*A* 5.87
